Origin of the recorded values: patent US20200087364A1

- target_system: T1, HLA-A*01:01 (human)
- T1 construct: MHC class I monomer first loaded with a UV-sensitive peptide (not identified) that is cleaved by UV irradiation and exchanged for the tested peptide; captured on streptavidin plates, detected with anti-β2m; also called peptide-receptive MHC molecules
- assay_text: UV-ligand exchange, anti-b2m ELISA
Entries and their measured peptide exchange yield follow.

- KIRAEVLSHY: 20 to 50%
- TAKAPSTEY: 20 to 50%
- YSDLHTPGRY: 50 to 75%
- ILKGGSGTY: 20 to 50%
- LLISKAEDY: 20 to 50%

Quick one: peptide exchange yield of `VTDSTTKIAY` ?
50 to 75%
